System: MCR-5 cells
PROTOCOL DETAILS: Cytotoxicity towards MCR-5 (MRC5) cells
Type: cell-based
SETUP CONDITIONS: human, 1 µg/mL
READOUT: Cytotoxicity MCR-5 cells 1 µg/mL
Give the figure only, with no unit attached.

Known results for compounds:
{"COMPOUND": "COc1ccc2cc1Oc1ccc(cc1)CC1c3cc(OC)c(OC)c(c3CCN1C)Oc1c(O)c(OC)cc3c1C(C2)NCC3 (single isomer, unassigned; (-)) [(-)-Northalrugosidine 3, (-)-northalrugosidine]", "RESULT": 0}
{"COMPOUND": "COc1cc2c3c(c1OC)Oc1c(OC)c(OC)cc4c1C(Cc1ccc(O)c(c1)Oc1ccc(cc1)CC2N(C)CC3)N(C)CC4 (single isomer, unassigned; (-)) [(-)-Thalfoetidine 4, (-)-thalfoetidine]", "RESULT": 0}
{"COMPOUND": "COc1cc2c(cc1OC)-c1c3c(c(OC)c4c1[C@H](C2)NCC4)OCO3 [(+)-O-Methylcassythine 7, (+)-O-methylcassythine]", "RESULT": 4}

State Cytotoxicity MCR-5 cells 1 µg/mL (MCR-5 cells) of COc1cc2c3c(c1O)Oc1c4c(cc(OC)c1OC)C(Cc1ccc(cc1)Oc1cc(ccc1O)CC3N(C)CC2)N(C)CC4 (single isomer, unassigned; (-)) [(-)-Thaligosidine 6, (-)-thaligosidine] . 0

###

# Cytotoxicity MCR-5 cells 10 µg/mL per entry
Test system: MCR-5 cells
PROTOCOL DETAILS: Cytotoxicity towards MCR-5 (MRC5) cells
Type: cell-based
SETUP CONDITIONS: human, 10 µg/mL
Returns: the value as a bare number; no unit string appended.

{"COMPOUND": "COc1cc2c3c(c1OC)Oc1c(OC)c(OC)cc4c1C(Cc1ccc(O)c(c1)Oc1ccc(cc1)CC2N(C)CC3)NCC4 (single isomer, unassigned; (-)) [(-)-Northalfoetidine 5, (-)-northalfoetidine]", "Cytotoxicity MCR-5 cells 10 µg/mL": 6}
{"COMPOUND": "COc1cc2c3c(c1O)Oc1c4c(cc(OC)c1OC)C(Cc1ccc(cc1)Oc1cc(ccc1O)CC3N(C)CC2)N(C)CC4 (single isomer, unassigned; (-)) [(-)-Thaligosidine 6, (-)-thaligosidine]", "Cytotoxicity MCR-5 cells 10 µg/mL": 61}
{"COMPOUND": "COc1ccc2cc1Oc1ccc(cc1)CC1c3cc(OC)c(OC)c(c3CCN1C)Oc1c(OC)c(OC)cc3c1C(C2)NCC3 (single isomer, unassigned; (-)) [(-)-Northalidasine 2, (-)-northalidasine]", "Cytotoxicity MCR-5 cells 10 µg/mL": 0}

Kindly consider the entry below.
Return value of Cytotoxicity MCR-5 cells 10 µg/mL for input COc1cc2c(cc1OC)-c1c(O)c(OC)c(OC)c3c1[C@H](C2)N(C)CC3 [(+)-Preocoteine 1, (+)-preocoteine] , no commentary. 20
